# System: MCF7 breast
# EXPERIMENTAL_PROTOCOL: NCI tumour cell line growth inhibition, 48 h
This listing pairs compounds with measured TGI.
MEASUREMENT_LABEL: TGI

COMPOUND: COc1ccccc1-c1ccc2c(N)c(C(=O)c3ccc4c(c3)OCO4)sc2n1
TESTED_SYSTEM: MCF7 breast
MEASUREMENT_LABEL: TGI
OBSERVED_MEASUREMENT: 98.6 µM
//
COMPOUND: Fc1ccc(-c2c(-c3ccncc3)[nH]c3cccnc23)cc1
TESTED_SYSTEM: MCF7 breast
MEASUREMENT_LABEL: TGI
OBSERVED_MEASUREMENT: > 25 µM
//
COMPOUND: CCOP(=O)(OCC)C(NC(c1ccccc1)c1ccccc1)c1ccsc1 (stereo not given)
TESTED_SYSTEM: MCF7 breast
MEASUREMENT_LABEL: TGI
OBSERVED_MEASUREMENT: > 100 µM
//
COMPOUND: COc1cccc2c1C(=O)c1c(O)c3c(c(O)c1C2=O)CC(O)(C(C)=O)CC3OC1OC(COC(C)=O)C(OC(C)=O)C(OC(C)=O)C1OC(C)=O (stereo not given)
TESTED_SYSTEM: MCF7 breast
MEASUREMENT_LABEL: TGI
OBSERVED_MEASUREMENT: > 100 µM
//
COMPOUND: O=[N+]([O-])c1cc(C(F)(F)F)cc2n[se]nc12
TESTED_SYSTEM: MCF7 breast
MEASUREMENT_LABEL: TGI
OBSERVED_MEASUREMENT: 4.07 µM
//
COMPOUND: COc1ccc2nc3c([N+](=O)[O-])ccc4c3c(c2c1)N=CN4CCN(C)C
TESTED_SYSTEM: MCF7 breast
MEASUREMENT_LABEL: TGI
OBSERVED_MEASUREMENT: 14.2 µM
//
COMPOUND: Cc1ccc2nc(-c3nccn3C)cc(C(=O)NC(C)CN(C)C)c2c1 (stereo not given)
TESTED_SYSTEM: MCF7 breast
MEASUREMENT_LABEL: TGI
OBSERVED_MEASUREMENT: > 100 µM
//
COMPOUND: COc1cccc(C2c3cc4c(cc3OC(NNC(N)=O)C2C)OCO4)c1OC (stereo not given)
TESTED_SYSTEM: MCF7 breast
MEASUREMENT_LABEL: TGI
OBSERVED_MEASUREMENT: > 100 µM
//
COMPOUND: Oc1ccccc1CNCc1ccccc1O
TESTED_SYSTEM: MCF7 breast
MEASUREMENT_LABEL: TGI
OBSERVED_MEASUREMENT: > 100 µM
//
COMPOUND: O=C(C(=O)c1cccnc1)c1cccnc1
TESTED_SYSTEM: MCF7 breast
MEASUREMENT_LABEL: TGI
OBSERVED_MEASUREMENT: > 100 µM
//
COMPOUND: CCC/C=C/C=C\C(=O)O[C@@H]1[C@@H](C)[C@]2(O)[C@@H]3C=C(C)C(=O)[C@H]3CC(COC(C)=O)=C[C@H]2[C@@H]2C(C)(C)[C@]12OC(C)=O
TESTED_SYSTEM: MCF7 breast
MEASUREMENT_LABEL: TGI
OBSERVED_MEASUREMENT: 83.1 µM
//
COMPOUND: C/C1=C\CC[C@@]2(C)O[C@@H]2C[C@@H]2[C@H](C/C(C)=C/CC1)OC(=O)[C@]21CO1
TESTED_SYSTEM: MCF7 breast
MEASUREMENT_LABEL: TGI
OBSERVED_MEASUREMENT: > 100 µM
//
COMPOUND: O=C(Nc1ccccc1)c1cc2cc(CCl)ccc2oc1=O
TESTED_SYSTEM: MCF7 breast
MEASUREMENT_LABEL: TGI
OBSERVED_MEASUREMENT: 82.9 µM
//
COMPOUND: CSc1nc(SC)c2c(C)c(Br)[nH]c2n1
TESTED_SYSTEM: MCF7 breast
MEASUREMENT_LABEL: TGI
OBSERVED_MEASUREMENT: > 100 µM
//
COMPOUND: CCOC(=O)Nc1cc2c(c(N)n1)N=C(c1ccccc1)CN2
TESTED_SYSTEM: MCF7 breast
MEASUREMENT_LABEL: TGI
OBSERVED_MEASUREMENT: 20.5 µM
//
COMPOUND: O=C(O)CCC1(CCC(=O)O)CCCCCCCCC(CCC(=O)O)(CCC(=O)O)C(=O)C1=O
TESTED_SYSTEM: MCF7 breast
MEASUREMENT_LABEL: TGI
OBSERVED_MEASUREMENT: > 100 µM
//
COMPOUND: Cl.[O-]c1cccc2cccnc12.[O-]c1cccc2cccnc12.[O-]c1cccc2cccnc12.[O-]c1cccc2cccnc12.[Ti+4]
TESTED_SYSTEM: MCF7 breast
MEASUREMENT_LABEL: TGI
OBSERVED_MEASUREMENT: > 100 µM
//
COMPOUND: O=C(O)c1ccccc1/C=N\N(CCO)C1=NCCN1
TESTED_SYSTEM: MCF7 breast
MEASUREMENT_LABEL: TGI
OBSERVED_MEASUREMENT: > 100 µM
//
COMPOUND: N#Cc1ccc(O)c(C2=NCC(c3ccc(-c4ccccc4)cc3)O2)c1 (stereo not given)
TESTED_SYSTEM: MCF7 breast
MEASUREMENT_LABEL: TGI
OBSERVED_MEASUREMENT: 11.8 µM
//
COMPOUND: CCOC(=O)c1c(Br)c(-c2ccc([N+](=O)[O-])cc2)c(Br)n1C
TESTED_SYSTEM: MCF7 breast
MEASUREMENT_LABEL: TGI
OBSERVED_MEASUREMENT: > 10 µM

Values from PubChem BioAssay (NCI)
